Tested on: HCT-116
EXPERIMENTAL PROTOCOL: Antiproliferative activity against human HCT116 cells after 48 hrs by Hoechst 33342 staining-based assay
Assay type: functional, cell-based
EXPERIMENTAL CONTEXT: HCT-116, 48 h
MEASUREMENT LABEL: IC50

MOLECULE	TEST SYSTEM	IC50
CC[C@H](CO)Nc1nc(NCc2ccccc2)c2ncn(C(C)C)c2n1 [SELICICLIB]	HCT-116	9 µM
CCN(CC)c1ccc(-c2cccc(OC)c2)nn1	HCT-116	> 25 µM
c1ccc(Oc2ccc(-c3ccsc3)nn2)cc1	HCT-116	> 25 µM

Hi, could you look up IC50 for each item in my list?
1. CCN(CC)c1ccc(-c2ccc(C(C)=O)cc2)nn1
2. COC(=O)c1ccc(-c2ccc(N(C)C)nn2)cc1
3. CCCCOc1ccc(-c2ccc(C(=O)OCC)cc2)nn1
4. CN1CCN(c2ccc(-c3cccc(C(F)(F)F)c3)nn2)CC1
5. N#Cc1ccc(Oc2ccc(-c3ccccc3)nn2)cc1

RESULT:
1: 6 µM; 2: > 25 µM; 3: > 25 µM; 4: > 25 µM; 5: > 25 µM

Hi, could you look up IC50 for each item in my list?
1. CC(=O)c1cccc(-c2ccc(OCc3ccccc3)nn2)c1
2. COc1ccc(-c2ccc(Oc3ccccc3)nn2)cc1
3. CCOC(=O)c1ccccc1-c1ccc(N2CCOCC2)nn1
4. COc1ccc(Nc2ccc(-c3ccccc3)nn2)cc1

RESULT:
["> 25 µM", "> 25 µM", "> 25 µM", "> 25 µM"]
